- EXPERIMENTAL_SETUP: Crystal; DTA
RESULT_TYPE: Normal melting temperature (°C)
Give bare numbers, in °C.

Worked examples follow.
# MOLECULE, Normal melting temperature, °C
rows = [
    ("CC(=O)Nc1ccccc1 [N-phenylethanamide]", 113.8),
    ("CCOc1cccc(NC(C)=O)c1 [N-(3-ethoxyphenyl)acetamide]", 95),
    ("COc1ccc(NC(C)=O)cc1 [N-(4-methoxyphenyl)ethanamide]", 125.1),
]

Batch request: Normal melting temperature for each of the following molecules.
1. CC(=O)Nc1ccc(C)cc1
2. CCOc1ccc(NC(C)=O)cc1 [N-(4-ethoxyphenyl)ethanamide]
3. O=C(Nc1ccccc1)c1ccccc1 [N-phenylbenzamide]

Return:
1: 148.2; 2: 134; 3: 162

All values here come from the NIST ThermoML archive (doi:10.1021/je300152t).
